# PROTOCOL_SUMMARY: A CellTox Green Cytotoxicity Assay to monitor cytotoxicity in HepG2 cells - 40 hour (AID 1224879); note: nearly all actives have a fitted effect of over 40% in size
# RUN_CONDITIONS: CellTox Green fluorescence; series mostly up to 76.8 µM
Results filed as inconclusive are left out. The source made the active and inactive calls. Calls come from the whole dose curve; as a rule, active = well fitted activation curve with a large enough effect in the repeat runs; inconclusive = weak or mixed curves; inactive = flat fitted curve, though single readings scatter.
Outcome codes: active, inactive

Oc1ccc(-c2ccc(O)cc2)cc1 = inactive
COc1ccc2sc(C(=O)Nc3nnn[nH]3)c(OC(C)C)c2c1 = inactive
CCCCN(C)C = inactive
CCCCOc1ccc(C(=O)CCN2CCCCC2)cc1 = active
CCC(C)c1ccccc1 (configuration not stated) = inactive
Cc1cnccn1 = inactive
CO[Si](CCCNCCNCCN)(OC)OC = inactive
CCN=C1C=CC(=C(c2ccc(N(CC)CC)cc2)c2ccc(N(CC)CC)cc2)c2ccccc21 = active
O=C1OC(OC(=O)c2cccnc2Nc2cccc(C(F)(F)F)c2)c2ccccc21 (configuration not stated) = inactive
COc1ccccc1C=O = inactive
C[n+]1c2cc(N)ccc2cc2ccc(N)cc21 (tested in a mixture with another compound) = active
CC(C)(C)c1cc(CCC(=O)NCCCCCCNC(=O)CCc2cc(C(C)(C)C)c(O)c(C(C)(C)C)c2)cc(C(C)(C)C)c1O = inactive

* * *

# PROTOCOL_SUMMARY: A CellTox Green Cytotoxicity Assay to monitor cytotoxicity in HepG2 cells - 32 hour (AID 1224883); note: nearly all actives have a fitted effect of over 50% in size
# RUN_CONDITIONS: CellTox Green fluorescence; series mostly up to 76.8 µM
Results filed as inconclusive are left out. Active and inactive are the calls of the source. Calls come from the whole dose curve; as a rule, active = well fitted activation curve with a large enough effect in the repeat runs; inconclusive = weak or mixed curves; inactive = flat fitted curve, though single readings scatter.
Outcome codes: class 1 for active, class 0 for inactive

Clc1cc(Cl)c(-c2c(Cl)c(Cl)cc(Cl)c2Cl)cc1Cl = class 0
O=C1NCN(c2ccccc2)C12CCN(CCCC(c1ccc(F)cc1)c1ccc(F)cc1)CC2 = class 1
CC(=O)Oc1ccc(C2(c3ccc(OC(C)=O)cc3)C(=O)Nc3ccccc32)cc1 = class 0
CC1=C(/C=C/C(C)=C/C=C/C(C)=C\C=O)C(C)(C)CCC1 = class 0
c1cc2c3c(c1)ccc1cccc(c13)C2 = class 0
CC(C)(C)c1cc(CCC(=O)NCCCCCCNC(=O)CCc2cc(C(C)(C)C)c(O)c(C(C)(C)C)c2)cc(C(C)(C)C)c1O = class 0
C[Si](C)O[Si](C)C = class 0
CCCCCCCCCCCCCc1ccccc1 = class 0
CCOC(=O)CN = class 0
CCC(C)(C)c1cc(O)c(C(C)(C)CC)cc1O = class 1
O=C1c2c(O)ccc([N+](=O)[O-])c2C(=O)c2c([N+](=O)[O-])ccc(O)c21 = class 0
C1CC(COCC2CO2)CCC1COCC1CO1 (stereo not drawn) = class 0
CC1CCCCN1CCCOC(=O)c1ccc(OC2CCCCC2)cc1 (stereo not drawn) = class 1
O=c1cccc[nH]1 = class 0
C=CC(=C)CCC=C(C)C = class 0
CCN(CC)c1cccc(C)c1 = class 0
CCc1c(Br)c(Br)c(Br)c(Br)c1Br = class 0
CCN(CC)CCOC(=O)C1(C2CCCCC2)CCCCC1 = class 1
CCCCOCC = class 0
COC(=O)NCCC[Si](OC)(OC)OC = class 0
N#CSCSc1nc2ccccc2s1 = class 1
CCc1cccc(C)c1 = class 0
OCCCCl = class 0
